Target: GPIIb-IIIa (Homo sapiens, UniProt P05106+P08514)
Construct: Purified platelet GPIIb-IIIa receptor was prepared as described by Fitzgerald
Sequence (P08514 32-887 limits assumed): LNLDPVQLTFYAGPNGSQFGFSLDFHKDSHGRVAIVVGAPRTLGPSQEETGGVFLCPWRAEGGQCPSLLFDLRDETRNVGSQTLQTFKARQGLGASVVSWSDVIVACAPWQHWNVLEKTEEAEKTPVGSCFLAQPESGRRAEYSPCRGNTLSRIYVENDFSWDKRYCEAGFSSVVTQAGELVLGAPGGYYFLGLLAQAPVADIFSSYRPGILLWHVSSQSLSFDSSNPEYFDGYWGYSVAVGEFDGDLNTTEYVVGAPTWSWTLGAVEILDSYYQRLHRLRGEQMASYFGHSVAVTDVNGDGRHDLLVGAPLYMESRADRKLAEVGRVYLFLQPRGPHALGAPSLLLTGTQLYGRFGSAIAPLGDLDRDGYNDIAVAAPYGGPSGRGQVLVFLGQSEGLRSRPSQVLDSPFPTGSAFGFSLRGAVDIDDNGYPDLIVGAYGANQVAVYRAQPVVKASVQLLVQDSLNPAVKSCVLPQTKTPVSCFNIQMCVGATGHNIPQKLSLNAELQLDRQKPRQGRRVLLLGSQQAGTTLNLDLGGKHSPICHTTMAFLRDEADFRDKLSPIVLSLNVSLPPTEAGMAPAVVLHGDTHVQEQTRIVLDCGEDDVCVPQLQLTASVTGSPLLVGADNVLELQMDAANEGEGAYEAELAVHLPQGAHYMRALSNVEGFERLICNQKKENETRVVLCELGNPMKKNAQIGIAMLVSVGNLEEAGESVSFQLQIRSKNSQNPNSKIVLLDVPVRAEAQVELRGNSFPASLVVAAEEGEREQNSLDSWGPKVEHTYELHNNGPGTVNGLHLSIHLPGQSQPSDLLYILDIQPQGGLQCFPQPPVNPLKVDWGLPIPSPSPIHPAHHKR
Sequence (P05106 27-788): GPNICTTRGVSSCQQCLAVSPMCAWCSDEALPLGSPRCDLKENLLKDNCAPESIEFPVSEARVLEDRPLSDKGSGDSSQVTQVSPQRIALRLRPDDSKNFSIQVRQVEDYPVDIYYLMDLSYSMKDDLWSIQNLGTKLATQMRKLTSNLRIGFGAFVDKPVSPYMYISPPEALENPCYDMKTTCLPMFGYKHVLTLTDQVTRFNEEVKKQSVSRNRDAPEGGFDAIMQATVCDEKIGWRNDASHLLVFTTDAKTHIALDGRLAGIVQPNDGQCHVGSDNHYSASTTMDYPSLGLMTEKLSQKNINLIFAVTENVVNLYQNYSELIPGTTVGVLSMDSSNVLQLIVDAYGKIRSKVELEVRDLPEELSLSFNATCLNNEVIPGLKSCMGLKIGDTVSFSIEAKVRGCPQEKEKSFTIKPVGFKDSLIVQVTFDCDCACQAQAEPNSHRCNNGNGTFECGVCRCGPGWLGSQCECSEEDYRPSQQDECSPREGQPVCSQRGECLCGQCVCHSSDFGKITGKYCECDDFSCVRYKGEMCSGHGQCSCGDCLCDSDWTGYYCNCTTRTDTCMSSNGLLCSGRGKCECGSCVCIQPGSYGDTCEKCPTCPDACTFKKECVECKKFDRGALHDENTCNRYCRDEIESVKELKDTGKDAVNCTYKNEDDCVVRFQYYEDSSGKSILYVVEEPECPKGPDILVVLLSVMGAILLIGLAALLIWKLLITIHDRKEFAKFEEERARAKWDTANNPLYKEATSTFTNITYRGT
Test: ELISA IIb-IIIa assay (fibrinogen binding to immobilized GPIIb-IIIa)
Details: purified platelet GPIIb-IIIa receptor coated on ELISA plates; biotin-labeled fibrinogen 10 nM, 3 hours at 25° C.
pIC50: −log10 of the molar value. Where a name gives a salt, the structure may show the parent alone.
Provide the recorded pIC50 for the entries that follow.

Query: Reported pIC50 for CCNC(=N)c1ccc(C(=O)Nc2ccc3c(c2)CCC(CC(=O)OCC)O3)cc1 (racemic) [Example 71, Hydrochloride] : what is it?
Result: < 5.00

Query: Reported pIC50 for O=C(O)CC1CCc2cc(OCCC3CCNCC3)ccc2O1 (racemic) [Example 61, Trifluoroacetate] : what is it?
Result: < 6.00

Query: Reported pIC50 for CCOC(=O)CC1CCc2cc(NC(=O)c3ccc(C(=N)NC(=O)OCC)cc3)ccc2O1 (racemic) [Example 68] : what is it?
Result: < 6.00
